Target: recombinant S. aureus FabI enzyme (Staphylococcus aureus (strain MRSA252), UniProt Q6GI75)
Assay: FabI inhibition, fluorescence based assay
Conditions: in vitro
READOUT_NAME: IC50 (nM)
Provide the reading as a plain figure in nM.

Problem: Requested read-out: IC50. Entry: "CC(=O)Nc1ccc(/C=C/C(=O)N2CC(OCc3ccncc3)C2)cn1"
Solution: 260

Problem: Which IC50 value belongs to "CCCCCS(=O)(=O)C1CN(C(=O)/C=C/c2cnc3c(c2)CCC(=O)N3)C1" ?
Solution: 8600

Problem: Which IC50 is listed for "O=C1CCc2cc(/C=C/C(=O)N3CCC(COc4ccc(F)cc4)CC3)cnc2N1" ?
Solution: 250

Problem: Reported IC50, molecule CC(Cc1ncccn1)=NOC1CN(C(=O)/C=C/c2cnc3c(c2)CCC(=O)N3)C1 (racemic) : ____
Solution: 870
